The values you see were collected from paper PMC8619046.

Experiment: 4-h oral plasma pharmacokinetics and tissue distribution, male wild-type and ABC transporter knockout mice
Type: in vivo
Settings: male, FVB, mouse, plasma, po, 10 mg/kg, male Abcb1a/1b;Abcg2−/− mice, 10 mg/kg oral, 4 h; read-out: AUC0–4h

molecule: C[C@H]1CNC(=O)c2cnn3ccc(nc23)N[C@H](C)c2cc(F)ccc2O1 [repotrectinib]
AUC(0-t): 14000 ng·h/mL

---

Test: 8-h pilot oral plasma pharmacokinetics and tissue distribution, female wild-type, Abcb1a/1b;Abcg2−/− and Oatp1a/1b−/− mice
Format: in vivo
Conditions: female, FVB, mouse, liver, po, 10 mg/kg, Table S1; female Oatp1a/1b−/− mice, 10 mg/kg oral, 8 h; read-out: Liver-to-plasma ratio

smiles.entry: C[C@H]1CNC(=O)c2cnn3ccc(nc23)N[C@H](C)c2cc(F)ccc2O1
Kp at 8 h: 4.59

---

Test: 4-h oral plasma pharmacokinetics and tissue distribution, male wild-type and Oatp1a/1b−/− mice
Type: in vivo
Details: male, FVB, mouse, plasma, po, 10 mg/kg, Table S2, male Oatp1a/1b−/− mice, 10 mg/kg oral

smiles.entry: C[C@H]1CNC(=O)c2cnn3ccc(nc23)N[C@H](C)c2cc(F)ccc2O1
Cmax [ng/mL]: 5070

---

Test: 4-h oral plasma pharmacokinetics and tissue distribution, male wild-type and Oatp1a/1b−/− mice
Type: in vivo
Settings: male, FVB, mouse, plasma, po, 10 mg/kg, Table S2, male wild-type mice, 10 mg/kg oral

smiles.entry: C[C@H]1CNC(=O)c2cnn3ccc(nc23)N[C@H](C)c2cc(F)ccc2O1
units: ng/mL
Cmax: 3080

---

Assay: 8-h oral plasma pharmacokinetics and tissue distribution, female wild-type, Cyp3a−/− and Cyp3aXAV mice
Format: in vivo
Settings: female, wild-type (>99% FVB background), mouse, liver, po, 10 mg/kg, female wild-type mice, 10 mg/kg oral, 8 h; read-out: Cliver
measured.metric: concentration at 8 h (ng/mL)

compound: C[C@H]1CNC(=O)c2cnn3ccc(nc23)N[C@H](C)c2cc(F)ccc2O1 [repotrectinib]
units: ng/mL
value.measured: 1220

---

Assay: 4-h oral plasma pharmacokinetics and tissue distribution, male wild-type and ABC transporter knockout mice
Type: in vivo
Conditions: male, FVB, mouse, small intestinal content, po, 10 mg/kg, male Abcb1a/1b;Abcg2−/− mice, 10 mg/kg oral, 4 h; read-out: SIC (%)-to-plasma ratio
measured.metric: Kp at 4 h

smiles.entry: C[C@H]1CNC(=O)c2cnn3ccc(nc23)N[C@H](C)c2cc(F)ccc2O1
value.measured: 0.0003

---

Experiment: 8-h oral plasma pharmacokinetics and tissue distribution, female wild-type, Cyp3a−/− and Cyp3aXAV mice
Type: in vivo
Conditions: female, Cyp3aXAV (>99% FVB background), mouse, liver, po, 10 mg/kg, female Cyp3aXAV mice, 10 mg/kg oral, 8 h; read-out: Cliver
measured.metric: concentration at 8 h (ng/mL)

molecule: C[C@H]1CNC(=O)c2cnn3ccc(nc23)N[C@H](C)c2cc(F)ccc2O1 [repotrectinib]
measured.metric: concentration at 8 h
value.measured: 1380

---

Assay: 8-h pilot oral plasma pharmacokinetics and tissue distribution, female wild-type, Abcb1a/1b;Abcg2−/− and Oatp1a/1b−/− mice
Format: in vivo
Conditions: female, FVB, mouse, brain, po, 10 mg/kg, Table S1; female Abcb1a/1b;Abcg2−/− mice, 10 mg/kg oral, 8 h; read-out: Cbrain
measured.metric: concentration at 8 h (ng/g)

smiles.entry: C[C@H]1CNC(=O)c2cnn3ccc(nc23)N[C@H](C)c2cc(F)ccc2O1
units: ng/g
value.measured: 1000

---

Test: 8-h oral plasma pharmacokinetics and tissue distribution, female wild-type, Cyp3a−/− and Cyp3aXAV mice
Assay type: in vivo
Conditions: female, FVB, mouse, plasma, po, 10 mg/kg, female Cyp3a−/− mice, 10 mg/kg oral, 8 h; read-out: AUC0–8h
measured.metric: AUC(0-t) (ng·h/mL)

compound: C[C@H]1CNC(=O)c2cnn3ccc(nc23)N[C@H](C)c2cc(F)ccc2O1 [repotrectinib]
value.measured: 37600

---

Assay: 4-h oral plasma pharmacokinetics and tissue distribution, male wild-type and ABC transporter knockout mice
Assay type: in vivo
Conditions: male, FVB, mouse, testis, po, 10 mg/kg, male Abcg2−/− mice, 10 mg/kg oral, 4 h; read-out: Ctestis

compound: C[C@H]1CNC(=O)c2cnn3ccc(nc23)N[C@H](C)c2cc(F)ccc2O1 [repotrectinib]
concentration at 4 h (ng/g): 166

---

Experiment: 2-h oral plasma pharmacokinetics and tissue distribution, male wild-type and Oatp1a/1b−/− mice
Assay type: in vivo
Conditions: male, FVB, mouse, liver, po, 10 mg/kg, male Oatp1a/1b−/− mice, 10 mg/kg oral, read-out: Liver-to-plasma ratio

smiles.entry: C[C@H]1CNC(=O)c2cnn3ccc(nc23)N[C@H](C)c2cc(F)ccc2O1
Kp at 2 h: 4

---

Experiment: 4-h oral plasma pharmacokinetics and tissue distribution, male wild-type and Oatp1a/1b−/− mice
Type: in vivo
Settings: male, FVB, mouse, testis, po, 10 mg/kg, Table S2, male Oatp1a/1b−/− mice, 10 mg/kg oral, read-out: Testis-to-plasma ratio

smiles.entry: C[C@H]1CNC(=O)c2cnn3ccc(nc23)N[C@H](C)c2cc(F)ccc2O1
Kp at 4 h: 0.19

---

Test: 4-h oral plasma pharmacokinetics and tissue distribution, male wild-type and ABC transporter knockout mice
Assay type: in vivo
Settings: male, FVB, mouse, brain, po, 10 mg/kg, male Abcb1a/1b;Abcg2−/− mice, 10 mg/kg oral, 4 h; read-out: Brain-to-plasma ratio
measured.metric: Kp at 4 h

smiles.entry: C[C@H]1CNC(=O)c2cnn3ccc(nc23)N[C@H](C)c2cc(F)ccc2O1
value.measured: 2.13

---

Test: 4-h oral plasma pharmacokinetics and tissue distribution, male wild-type and ABC transporter knockout mice
Type: in vivo
Details: male, FVB, mouse, brain, po, 10 mg/kg, male Abcb1a/1b−/− mice, 10 mg/kg oral, 4 h; read-out: Brain-to-plasma ratio

compound: C[C@H]1CNC(=O)c2cnn3ccc(nc23)N[C@H](C)c2cc(F)ccc2O1 [repotrectinib]
Kp at 4 h: 0.62

---

Experiment: 8-h oral plasma pharmacokinetics and tissue distribution, female wild-type, Cyp3a−/− and Cyp3aXAV mice
Format: in vivo
Settings: female, FVB, mouse, plasma, po, 10 mg/kg, female Cyp3aXAV mice, 10 mg/kg oral, 8 h
measured.metric: Cmax (ng/mL)

smiles.entry: C[C@H]1CNC(=O)c2cnn3ccc(nc23)N[C@H](C)c2cc(F)ccc2O1
measured.metric: Cmax
value.measured: 5560

---

Assay: 4-h oral plasma pharmacokinetics and tissue distribution, male wild-type and Oatp1a/1b−/− mice
Format: in vivo
Details: male, FVB, mouse, brain, po, 10 mg/kg, Table S2, male Oatp1a/1b−/− mice, 10 mg/kg oral, read-out: Cbrain

smiles.entry: C[C@H]1CNC(=O)c2cnn3ccc(nc23)N[C@H](C)c2cc(F)ccc2O1
concentration at 4 h / ng/g: 258

---

Test: 8-h oral plasma pharmacokinetics and tissue distribution, female wild-type, Cyp3a−/− and Cyp3aXAV mice
Type: in vivo
Details: female, Cyp3a−/− (>99% FVB background), mouse, liver, po, 10 mg/kg, female Cyp3a−/− mice, 10 mg/kg oral, 8 h; read-out: Cliver

compound: C[C@H]1CNC(=O)c2cnn3ccc(nc23)N[C@H](C)c2cc(F)ccc2O1 [repotrectinib]
concentration at 8 h: 5020 ng/mL

---

Experiment: 8-h pilot oral plasma pharmacokinetics and tissue distribution, female wild-type, Abcb1a/1b;Abcg2−/− and Oatp1a/1b−/− mice
Type: in vivo
Conditions: FVB, mouse, plasma; Table S1; median (range); female wild-type mice, 10 mg/kg oral, 8 h; read-out: Tmax

smiles.entry: C[C@H]1CNC(=O)c2cnn3ccc(nc23)N[C@H](C)c2cc(F)ccc2O1
units: min
Tmax: 30

---

Biological target: human ABCB1 (Homo sapiens, UniProt P08183)
Construct: expressed in transfected cells; host or cells: MDCK-II cells stably transduced with hABCB1 cDNA (made in the authors' institute)
Sequence (P08183 whole entry): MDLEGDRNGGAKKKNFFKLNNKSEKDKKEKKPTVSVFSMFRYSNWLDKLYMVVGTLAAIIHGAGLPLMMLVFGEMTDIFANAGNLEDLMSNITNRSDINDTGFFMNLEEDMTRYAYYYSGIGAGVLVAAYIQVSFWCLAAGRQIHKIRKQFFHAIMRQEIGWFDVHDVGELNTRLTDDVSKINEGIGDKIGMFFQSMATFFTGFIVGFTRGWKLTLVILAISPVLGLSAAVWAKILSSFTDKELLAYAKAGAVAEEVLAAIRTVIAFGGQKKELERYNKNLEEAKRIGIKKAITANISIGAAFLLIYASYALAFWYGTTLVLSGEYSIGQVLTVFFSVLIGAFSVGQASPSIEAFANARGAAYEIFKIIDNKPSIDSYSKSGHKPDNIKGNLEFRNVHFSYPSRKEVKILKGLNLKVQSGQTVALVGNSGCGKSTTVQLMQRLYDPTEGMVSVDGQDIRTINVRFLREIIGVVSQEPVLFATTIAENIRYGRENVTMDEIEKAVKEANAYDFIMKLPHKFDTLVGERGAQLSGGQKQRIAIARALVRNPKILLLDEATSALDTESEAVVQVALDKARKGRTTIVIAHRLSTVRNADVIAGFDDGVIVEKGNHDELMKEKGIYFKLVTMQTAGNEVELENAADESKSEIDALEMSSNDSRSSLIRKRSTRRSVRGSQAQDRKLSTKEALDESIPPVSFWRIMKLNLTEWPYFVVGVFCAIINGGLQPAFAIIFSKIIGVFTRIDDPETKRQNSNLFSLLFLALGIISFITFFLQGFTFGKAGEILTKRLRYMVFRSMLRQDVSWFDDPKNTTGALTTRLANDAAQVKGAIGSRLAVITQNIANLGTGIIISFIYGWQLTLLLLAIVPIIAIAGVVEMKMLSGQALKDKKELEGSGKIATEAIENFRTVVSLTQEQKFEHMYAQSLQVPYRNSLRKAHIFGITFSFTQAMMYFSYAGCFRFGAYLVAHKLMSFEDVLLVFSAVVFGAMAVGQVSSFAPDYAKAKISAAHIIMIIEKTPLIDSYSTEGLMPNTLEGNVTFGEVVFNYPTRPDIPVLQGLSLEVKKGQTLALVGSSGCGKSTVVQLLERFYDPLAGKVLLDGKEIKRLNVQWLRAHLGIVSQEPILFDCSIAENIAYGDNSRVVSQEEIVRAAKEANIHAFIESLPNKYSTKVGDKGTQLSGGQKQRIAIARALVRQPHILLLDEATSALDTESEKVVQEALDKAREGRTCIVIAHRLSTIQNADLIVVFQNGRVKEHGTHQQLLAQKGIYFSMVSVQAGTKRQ
Assay: Transepithelial transport, MDCK-II cells transduced with hABCB1
Assay type: in vitro ADME
Conditions: MDCK-MDR1, pH 7.4, MDCK-II hABCB1, 5 µM, no inhibitor, read-out: efflux transport ratio r
Excerpt: Polarized Madin-Darby Canine Kidney (MDCK-II) cells (ECACC 00062107) stably transduced with either human (h) ABCB1, hABCG2 or mouse (m) Abcg2 cDNA were generated in our institute between 1995–2005. The proper identity and functionality, such as highly characteristic growth and drug transporter properties, including inhibitor sensitivity, were regularly checked in these epithelial cells. Mycoplasma routinely tested negative in these cells. […]
measured.metric: efflux ratio at 8 h, 5 µM

smiles.entry: C[C@H]1CNC(=O)c2cnn3ccc(nc23)N[C@H](C)c2cc(F)ccc2O1
measured.metric: efflux ratio at 8 h, 5 µM
value.measured: 13.5

---

Assay: 8-h pilot oral plasma pharmacokinetics and tissue distribution, female wild-type, Abcb1a/1b;Abcg2−/− and Oatp1a/1b−/− mice
Format: in vivo
Conditions: female, FVB, mouse, plasma, po, 10 mg/kg, Table S1; female Oatp1a/1b−/− mice, 10 mg/kg oral, 8 h; read-out: AUC0-8h
measured.metric: AUC(0-t) (ng·h/mL)

smiles.entry: C[C@H]1CNC(=O)c2cnn3ccc(nc23)N[C@H](C)c2cc(F)ccc2O1
units: ng·h/mL
value.measured: 24600
